tested on: MDA-MB-231; test: NCI tumour cell line growth inhibition, 48 h
The source made the active and inactive calls. No stated cut-off is given here; in the data, active = GI50 up to about 1.1 µM and inactive = higher.
Reported GI50 values for the following compounds.

For orientation, consider the following solved cases.
INSERT INTO assay_data (compound, observed_result) VALUES
  ('COc1cccc(/C=N/NC(=O)CSCC(=O)N/N=C/c2cccc(OC)c2OC)c1OC', '> 100 µM (inactive)'),
  ('CC(=O)O[C@H]1[C@@H](OC2CCCC2(c2ccccc2)c2ccccc2)O[N+]([O-])=C[C@@]12COCc1cc3c(cc12)OCO3 (some centres undefined)', '6.12 µM (inactive)');

Request: Using the record for Oc1ccc(/N=N/c2ccc(Cl)cc2)cc1 , state its measured GI50.
Result: 10.8 µM (inactive)

Request: Using the record for CC(C)(C)C1=CC(O)(c2c3ccccc3c(C3(O)C=C(C(C)(C)C)C(=O)C(C(C)(C)C)=C3)c3ccccc23)C=C(C(C)(C)C)C1=O , state its measured GI50.
Result: 27 µM (inactive)

Reference source for all entries: ChEMBL document CHEMBL1201862
